tested on: HeLa; assay: Cytotoxicity against human HeLa cells after 72 hrs by MTT assay; assay type: functional, cell-based
Binary label based on IC50 with cut-off 20 µM: below gives Satisfied, not below gives Not satisfied.

Answered examples (4):
INSERT INTO assay_data (smiles_text, cat) VALUES
  ('CC(=O)O[C@H]1CC[C@@]2(C)C(=CC[C@H]3[C@@H]4CC[C@H]([C@H]5OC(c6ccccc6)=NN5C(C)=O)[C@@]4(C)CC[C@@H]32)C1', 'Not satisfied'),
  ('C[C@]12CC[C@H]3[C@@H](CC=C4C[C@@H](O)CC[C@@]43C)[C@@H]1CC[C@@H]2/C=N/NC(=O)c1ccco1', 'Satisfied'),
  ('CC(=O)O[C@H]1CC[C@@]2(C)C(=CC[C@H]3[C@@H]4CC[C@H](c5nnc(-c6ccccc6)o5)[C@@]4(C)CC[C@@H]32)C1', 'Not satisfied'),
  ('CC(=O)O[C@H]1CC[C@@]2(C)C(=CC[C@H]3[C@@H]4CC[C@H](/C=N/NC(=O)c5cccnc5)[C@@]4(C)CC[C@@H]32)C1', 'Satisfied');

QUERY: Threshold test, IC50 < 20 µM: C[C@]12CC[C@H]3[C@@H](CC=C4C[C@@H](O)CC[C@@]43C)[C@@H]1CC[C@@H]2c1nnc(-c2cccnc2)o1
RESULT: Satisfied

QUERY: Bench note: check whether CC(=O)O[C@H]1CC[C@@]2(C)C(=CC[C@H]3[C@@H]4CC[C@H](c5nnc(-c6cccnc6)o5)[C@@]4(C)CC[C@@H]32)C1 shows IC50 below 20 µM
RESULT: Not satisfied

----------
tested on: MCF7; test: Cytotoxicity against human MCF7 cells at 10 uM after 72 hrs by MTT assay; format: functional; settings: MCF7, 72 h
Below, each of the compounds is paired with its reported inhibition at 10 µM value.
Give a bare numeral; the unit % is implied.

The cases that follow already have their inhibition at 10 µM on record.
INSERT INTO assay_data (smiles_text, assay_target, readout_unit, recorded_measurement) VALUES
  ('C[C@]12CC[C@H]3[C@@H](CC=C4C[C@@H](O)CC[C@@]43C)[C@@H]1CC[C@@H]2c1nnc(-c2cccnc2)o1', 'MCF7', '%', 41.6),
  ('CC(=O)O[C@H]1CC[C@@]2(C)C(=CC[C@H]3[C@@H]4CC[C@H](c5nnc(-c6ccccc6)o5)[C@@]4(C)CC[C@@H]32)C1', 'MCF7', '%', 22.6),
  ('CC(=O)O[C@H]1CC[C@@]2(C)C(=CC[C@H]3[C@@H]4CC[C@H](c5nnc(-c6cccnc6)o5)[C@@]4(C)CC[C@@H]32)C1', 'MCF7', '%', 21.8);

Proceed to the following item.
QUERY: # return recorded inhibition at 10 µM for input CC(=O)O[C@H]1CC[C@@]2(C)C(=CC[C@H]3[C@@H]4CC[C@H](/C=N/NC(=O)c5ccco5)[C@@]4(C)CC[C@@H]32)C1
RESULT: 26.7

----------
test system: HeLa; assay: Cytotoxicity against human HeLa cells at 30 uM after 72 hrs by MTT assay; type: functional
Here the recorded inhibition at 30 µM is given for each entry.
Give a bare numeral; the unit % is implied.

INSERT INTO results (smiles_text, assay_target, recorded_measurement) VALUES
  ('C[C@]12CC[C@H]3[C@@H](CC=C4C[C@@H](O)CC[C@@]43C)[C@@H]1CC[C@@H]2/C=N/NC(=O)c1ccccc1', 'HeLa', 90.4),
  ('CC(=O)O[C@H]1CC[C@@]2(C)C(=CC[C@H]3[C@@H]4CC[C@H](/C=N/NC(=O)c5ccccc5)[C@@]4(C)CC[C@@H]32)C1', 'HeLa', 90.2),
  ('CC(=O)O[C@H]1CC[C@@]2(C)C(=CC[C@H]3[C@@H]4CC[C@H](/C=N/NC(=O)c5cccnc5)[C@@]4(C)CC[C@@H]32)C1', 'HeLa', 88);

QUERY: Entry C[C@]12CC[C@H]3[C@@H](CC=C4C[C@@H](O)CC[C@@]43C)[C@@H]1CC[C@@H]2/C=N/NC(=O)c1cccnc1 needs its inhibition at 30 µM filled in; supply it.
RESULT: 90.9

QUERY: Supply reported inhibition at 30 µM belonging to this compound: CC(=O)O[C@H]1CC[C@@]2(C)C(=CC[C@H]3[C@@H]4CC[C@H](/C=N/NC(=O)c5ccco5)[C@@]4(C)CC[C@@H]32)C1
RESULT: 91.2

QUERY: Please give measured inhibition at 30 µM of the following entry: CC(=O)O[C@H]1CC[C@@]2(C)C(=CC[C@H]3[C@@H]4CC[C@H]([C@@H]5OC(c6ccccc6)=NN5C(C)=O)[C@@]4(C)CC[C@@H]32)C1
RESULT: 23

QUERY: Please report inhibition at 30 µM for the following compound: C[C@]12CC[C@H]3[C@@H](CC=C4C[C@@H](O)CC[C@@]43C)[C@@H]1CC[C@@H]2c1nnc(-c2ccco2)o1
RESULT: 77.5

QUERY: Please give measured inhibition at 30 µM of the following entry: CC(=O)O[C@H]1CC[C@@]2(C)C(=CC[C@H]3[C@@H]4CC[C@H](c5nnc(-c6cccnc6)o5)[C@@]4(C)CC[C@@H]32)C1
RESULT: 65.8

QUERY: For the compound CC(=O)O[C@H]1CC[C@@]2(C)C(=CC[C@H]3[C@@H]4CC[C@H](c5nnc(-c6ccco6)o5)[C@@]4(C)CC[C@@H]32)C1 , report inhibition at 30 µM.
RESULT: 48.2

QUERY: Respond only with inhibition at 30 µM recorded for C[C@]12CC[C@H]3[C@@H](CC=C4C[C@@H](O)CC[C@@]43C)[C@@H]1CC[C@@H]2/C=N/NC(=O)c1ccco1
RESULT: 91.2

QUERY: Please report inhibition at 30 µM for the following compound: CC(=O)O[C@H]1CC[C@@]2(C)C(=CC[C@H]3[C@@H]4CC[C@H]([C@H]5OC(c6ccccc6)=NN5C(C)=O)[C@@]4(C)CC[C@@H]32)C1
RESULT: 71.3

QUERY: Please give measured inhibition at 30 µM of the following entry: C[C@]12CC[C@H]3[C@@H](CC=C4C[C@@H](O)CC[C@@]43C)[C@@H]1CC[C@@H]2c1nnc(-c2ccccc2)o1
RESULT: 80.7

QUERY: Return reported inhibition at 30 µM. Input compound: C[C@]12CC[C@H]3[C@@H](CC=C4C[C@@H](O)CC[C@@]43C)[C@@H]1CC[C@@H]2c1nnc(-c2cccnc2)o1
RESULT: 74.2

QUERY: Supply inhibition at 30 µM value. Item: CC(=O)O[C@H]1CC[C@@]2(C)C(=CC[C@H]3[C@@H]4CC[C@H](c5nnc(-c6ccccc6)o5)[C@@]4(C)CC[C@@H]32)C1
RESULT: 57.4

----------
tested on: HeLa; experiment: Cytotoxicity against human HeLa cells after 72 hrs by MTT assay; format: functional, cell-based
Hi! Could you tag entries with IC50 below 5 µM as True, and those at or above as False? Much appreciated.

INSERT INTO results (smiles_text, assay_target, cat) VALUES
  ('C[C@]12CC[C@H]3[C@@H](CC=C4C[C@@H](O)CC[C@@]43C)[C@@H]1CC[C@@H]2c1nnc(-c2ccccc2)o1', 'HeLa', 'True'),
  ('C[C@]12CC[C@H]3[C@@H](CC=C4C[C@@H](O)CC[C@@]43C)[C@@H]1CC[C@@H]2c1nnc(-c2ccco2)o1', 'HeLa', 'True');

QUERY: API: query returns whether the molecule falls strictly under 5 µM in IC50. Query: C[C@]12CC[C@H]3[C@@H](CC=C4C[C@@H](O)CC[C@@]43C)[C@@H]1CC[C@@H]2/C=N/NC(=O)c1cccnc1
RESULT: False

QUERY: Quick check: IC50 of C[C@]12CC[C@H]3[C@@H](CC=C4C[C@@H](O)CC[C@@]43C)[C@@H]1CC[C@@H]2/C=N/NC(=O)c1ccccc1 under 5 µM?
RESULT: True

QUERY: Identify whether the molecule CC(=O)O[C@H]1CC[C@@]2(C)C(=CC[C@H]3[C@@H]4CC[C@H](/C=N/NC(=O)c5ccco5)[C@@]4(C)CC[C@@H]32)C1 records IC50 below 5 µM.
RESULT: False

----------
This section presents molecules with their documented inhibition at 10 µM values.
test system: MCF7; assay: Cytotoxicity against human MCF7 cells at 10 uM after 72 hrs by MTT assay; type: functional; details: MCF7, 72 h
Give a bare numeral; the unit % is implied.

INSERT INTO measurements (smiles_text, measure, recorded_measurement) VALUES
  ('C[C@]12CC[C@H]3[C@@H](CC=C4C[C@@H](O)CC[C@@]43C)[C@@H]1CC[C@@H]2c1nnc(-c2ccccc2)o1', 'inhibition at 10 µM', 31.6);

QUERY: Recall the reported inhibition at 10 µM of C[C@]12CC[C@H]3[C@@H](CC=C4C[C@@H](O)CC[C@@]43C)[C@@H]1CC[C@@H]2/C=N/NC(=O)c1ccco1 when tested on MCF7.
RESULT: 21.1

QUERY: Answer with inhibition at 10 µM of CC(=O)O[C@H]1CC[C@@]2(C)C(=CC[C@H]3[C@@H]4CC[C@H](c5nnc(-c6ccco6)o5)[C@@]4(C)CC[C@@H]32)C1 measured for MCF7.
RESULT: 26.1

QUERY: Recall the reported inhibition at 10 µM of C[C@]12CC[C@H]3[C@@H](CC=C4C[C@@H](O)CC[C@@]43C)[C@@H]1CC[C@@H]2c1nnc(-c2ccco2)o1 when tested on MCF7.
RESULT: 42
